- TEST_SUMMARY: Inhibition of JAK2 V617F mutant in mouse BaF3 cells assessed as reduction in cell viability incubated for 72 hrs by MTT assay
Listing of recorded IC50 by entry.

QUERY_SMILES: C=CCN1CCc2cc(Nc3ncc(C)c(-c4cnn(C(C)C)c4)n3)ccc2C1
IC50, nM: 452
//
QUERY_SMILES: Cc1cnc(Nc2ccc3c(c2)CCN(CCC#N)C3)nc1-c1cnn(C(C)C)c1
IC50, nM: 177
//
QUERY_SMILES: CCN(CC)C(=O)/C=C/CN1CCc2cc(Nc3ncc(C)c(-c4cnn(C(C)C)c4)n3)ccc2C1
IC50, nM: 287
//
QUERY_SMILES: CCOCCN1CCc2cc(Nc3ncc(C)c(-c4cnn(C(C)C)c4)n3)ccc2C1
IC50, nM: 302
//
QUERY_SMILES: Cc1cnc(Nc2ccc3c(c2)CCN3CCO)nc1-c1cnn(C(C)C)c1
IC50, nM: 4390
//
QUERY_SMILES: CCNC(=O)N1CCc2cc(Nc3ncc(C)c(-c4cnn(C(C)C)c4)n3)ccc2C1
IC50, nM: 1890
//
QUERY_SMILES: CCCNC(=O)N1CCc2cc(Nc3ncc(C)c(-c4cnn(C(C)C)c4)n3)ccc2C1
IC50, nM: 1210
//
QUERY_SMILES: Cc1ccc(C(=O)CCC(=O)N2CCc3cc(Nc4ncc(C)c(-c5cnn(C(C)C)c5)n4)ccc3C2)cc1
IC50, nM: 784
//
QUERY_SMILES: CC(C)n1cc(-c2nc(Nc3ccc4c(c3)CCN(CCO)C4)ncc2F)cn1
IC50, nM: 760
